# ASSAY TARGET: TYK2 (Homo sapiens, UniProt P29597)
# Sequence (P29597 whole entry): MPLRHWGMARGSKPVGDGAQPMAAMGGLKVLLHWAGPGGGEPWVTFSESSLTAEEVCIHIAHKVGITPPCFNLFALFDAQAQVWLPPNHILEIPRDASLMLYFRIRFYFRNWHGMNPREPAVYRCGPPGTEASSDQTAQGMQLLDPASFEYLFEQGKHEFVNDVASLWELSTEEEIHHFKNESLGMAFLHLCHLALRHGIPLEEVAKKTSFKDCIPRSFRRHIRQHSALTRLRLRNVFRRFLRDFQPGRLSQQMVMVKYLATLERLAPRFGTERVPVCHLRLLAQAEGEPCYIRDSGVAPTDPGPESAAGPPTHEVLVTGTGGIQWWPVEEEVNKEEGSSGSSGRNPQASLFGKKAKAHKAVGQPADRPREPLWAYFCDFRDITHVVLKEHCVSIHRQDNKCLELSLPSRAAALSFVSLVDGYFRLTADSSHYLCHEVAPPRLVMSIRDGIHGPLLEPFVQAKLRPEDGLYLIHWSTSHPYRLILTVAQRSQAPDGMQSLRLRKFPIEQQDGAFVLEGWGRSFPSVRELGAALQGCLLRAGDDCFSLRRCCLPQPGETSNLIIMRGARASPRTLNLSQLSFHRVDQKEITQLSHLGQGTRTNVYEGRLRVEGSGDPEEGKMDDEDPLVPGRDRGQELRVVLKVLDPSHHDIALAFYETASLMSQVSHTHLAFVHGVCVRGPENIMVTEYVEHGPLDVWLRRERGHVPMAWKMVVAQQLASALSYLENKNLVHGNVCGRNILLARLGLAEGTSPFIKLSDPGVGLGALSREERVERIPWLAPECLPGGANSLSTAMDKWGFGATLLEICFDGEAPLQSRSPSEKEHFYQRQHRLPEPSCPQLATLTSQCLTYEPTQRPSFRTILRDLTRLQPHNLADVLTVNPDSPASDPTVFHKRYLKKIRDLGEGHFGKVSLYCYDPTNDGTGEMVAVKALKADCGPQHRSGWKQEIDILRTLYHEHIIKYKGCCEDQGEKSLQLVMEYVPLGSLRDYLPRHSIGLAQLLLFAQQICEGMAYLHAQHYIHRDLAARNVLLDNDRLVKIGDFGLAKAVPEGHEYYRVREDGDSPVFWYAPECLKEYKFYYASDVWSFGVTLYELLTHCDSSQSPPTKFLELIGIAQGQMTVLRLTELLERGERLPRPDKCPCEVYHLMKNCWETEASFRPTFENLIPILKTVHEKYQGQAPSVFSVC
# ASSAY TEXT: TYK2 kinase inhibition (Table A1)
# Assay type: biochemical
# CONDITION CONTEXT: Table B1
pIC50: −log10 of the molar value. Counter-ions that a name gives are not always drawn.
Recorded pIC50, one value per entry.

[
  {
    "MOLECULE": "O=C(Nc1ccc2cc1CCc1cncc(c1)Nc1ncc(Cl)c(n1)N2)N[C@H]1CCN(C(=O)c2cn[nH]c2)C1 [Example B267, bis(trifluoroacetate)]",
    "ASSAY TARGET": "TYK2 (Homo sapiens, UniProt P29597)",
    "pIC50": 6.05
  },
  {
    "MOLECULE": "Cn1cccc1C(=O)Nc1ccc2cc1CCc1cccc(c1)Nc1ncc(Cl)c(n1)N2 [Example B50, trifluoroacetate]",
    "ASSAY TARGET": "TYK2 (Homo sapiens, UniProt P29597)",
    "pIC50": 8.64
  },
  {
    "MOLECULE": "COc1ccc(C(=O)Nc2ccc3cc2CCc2cccc(c2)Nc2ncc(Cl)c(n2)N3)cc1 [Example B67, trifluoroacetate]",
    "ASSAY TARGET": "TYK2 (Homo sapiens, UniProt P29597)",
    "pIC50": 8.22
  },
  {
    "MOLECULE": "Cn1ccc(C(=O)N2CC[C@H](NC(=O)Nc3ccc4cc3CCc3cncc(c3)Nc3ncc(Cl)c(n3)N4)C2)n1 [Example B272, bis(trifluoroacetate)]",
    "ASSAY TARGET": "TYK2 (Homo sapiens, UniProt P29597)",
    "pIC50": 6.24
  },
  {
    "MOLECULE": "O=C(Nc1ccc2cc1CCc1cccc(c1)Nc1ncc(Cl)c(n1)N2)Nc1ccccc1OC(F)F [Example B128, trifluoroacetate]",
    "ASSAY TARGET": "TYK2 (Homo sapiens, UniProt P29597)",
    "pIC50": 8.04
  },
  {
    "MOLECULE": "O=C(Nc1cccc(C(F)(F)F)c1)Nc1ccc2cc1CCc1cccc(c1)Nc1ncc(Cl)c(n1)N2 [Example B112, trifluoroacetate]",
    "ASSAY TARGET": "TYK2 (Homo sapiens, UniProt P29597)",
    "pIC50": 7.48
  }
]

###

# ASSAY TARGET: TYK2 (Homo sapiens, UniProt P29597)
# ASSAY TEXT: TYK2 kinase inhibition (Table A1)
# Format: biochemical
Counter-ions that a name gives are not always drawn.
IC50 under 40 nM gets label 1, anything at or over 40 nM gets label 0.

[
  {
    "COMPOUND": "O=C(CC1CCN(c2ncccn2)CC1)Nc1ccc2cc1CCc1cncc(c1)Nc1ncc(Cl)c(n1)N2 [Example A172, tris(trifluoroacetate)]",
    "ASSAY TARGET": "TYK2 (Homo sapiens, UniProt P29597)",
    "LABEL CLASS": "label 0"
  },
  {
    "COMPOUND": "Cc1ncsc1C(=O)N1CCC(CC(=O)Nc2ccc3cc2CCc2cncc(c2)Nc2ncc(Cl)c(n2)N3)CC1 [Example A216, bis(trifluoroacetate)]",
    "ASSAY TARGET": "TYK2 (Homo sapiens, UniProt P29597)",
    "LABEL CLASS": "label 0"
  },
  {
    "COMPOUND": "NS(=O)(=O)N1CCCC(C(=O)Nc2ccc3cc2CCc2cccc(c2)Nc2ncc(Cl)c(n2)N3)C1 (stereo not drawn) [Example A73, trifluoroacetate]",
    "ASSAY TARGET": "TYK2 (Homo sapiens, UniProt P29597)",
    "LABEL CLASS": "label 1"
  },
  {
    "COMPOUND": "O=C(CCC1CCNCC1)Nc1ccc2cc1CCc1cncc(c1)Nc1ncc(Cl)c(n1)N2",
    "ASSAY TARGET": "TYK2 (Homo sapiens, UniProt P29597)",
    "LABEL CLASS": "label 0"
  },
  {
    "COMPOUND": "O=S1(=O)Nc2cccc(c2)Nc2ncc(Cl)c(n2)Nc2cccc1c2 [Example C7, trifluoroacetate]",
    "ASSAY TARGET": "TYK2 (Homo sapiens, UniProt P29597)",
    "LABEL CLASS": "label 1"
  },
  {
    "COMPOUND": "N#Cc1ccccc1S(=O)(=O)N1CCC(CC(=O)Nc2ccc3cc2CCc2cccc(c2)Nc2ncc(Cl)c(n2)N3)CC1 [Example A208, trifluoroacetate]",
    "ASSAY TARGET": "TYK2 (Homo sapiens, UniProt P29597)",
    "LABEL CLASS": "label 0"
  },
  {
    "COMPOUND": "O=C(Nc1ccc2cc1CCc1cccc(c1)Nc1ncc(Cl)c(n1)N2)C1CCN(C(=O)c2ccco2)CC1 [Example A32, trifluoroacetate]",
    "ASSAY TARGET": "TYK2 (Homo sapiens, UniProt P29597)",
    "LABEL CLASS": "label 0"
  },
  {
    "COMPOUND": "CCNC(=O)N1CCC(C(=O)Nc2ccc3cc2CCc2cccc(c2)Nc2ncc(Cl)c(n2)N3)CC1 [Example A59, trifluoroacetate]",
    "ASSAY TARGET": "TYK2 (Homo sapiens, UniProt P29597)",
    "LABEL CLASS": "label 1"
  },
  {
    "COMPOUND": "O=C(Cc1coc2ccccc12)Nc1ccc2cc1CCc1cccc(c1)Nc1ncc(Cl)c(n1)N2 [Example C47, trifluoroacetate]",
    "ASSAY TARGET": "TYK2 (Homo sapiens, UniProt P29597)",
    "LABEL CLASS": "label 0"
  },
  {
    "COMPOUND": "O=C(CC1CCN(C(=O)Nc2ccccc2)C1)Nc1ccc2cc1CCc1cncc(c1)Nc1ncc(Cl)c(n1)N2 (stereo not drawn) [Example A92, bis(trifluoroacetate)]",
    "ASSAY TARGET": "TYK2 (Homo sapiens, UniProt P29597)",
    "LABEL CLASS": "label 1"
  },
  {
    "COMPOUND": "Cc1cc(C(=O)N2CCC(CCC(=O)Nc3ccc4cc3CCc3cncc(c3)Nc3ncc(Cl)c(n3)N4)CC2)no1 [Example A125, bis(trifluoroacetate)]",
    "ASSAY TARGET": "TYK2 (Homo sapiens, UniProt P29597)",
    "LABEL CLASS": "label 1"
  },
  {
    "COMPOUND": "Cc1cc(C(=O)N2CCN(CC(=O)Nc3ccc4cc3CCc3cccc(c3)Nc3ncc(Cl)c(n3)N4)CC2)no1 [Example A123, bis(trifluoroacetate)]",
    "ASSAY TARGET": "TYK2 (Homo sapiens, UniProt P29597)",
    "LABEL CLASS": "label 1"
  },
  {
    "COMPOUND": "Cn1ccc(C(=O)N2CCC(CC(=O)Nc3ccc4cc3CCc3cncc(c3)Nc3ncc(Cl)c(n3)N4)CC2)n1 [Example A130, bis(trifluoroacetate)]",
    "ASSAY TARGET": "TYK2 (Homo sapiens, UniProt P29597)",
    "LABEL CLASS": "label 1"
  },
  {
    "COMPOUND": "O=C(Nc1ccccc1)N[C@@H](CO)C(=O)Nc1ccc2cc1CCc1cccc(c1)Nc1ncc(Cl)c(n1)N2 [Example A68, trifluoroacetate]",
    "ASSAY TARGET": "TYK2 (Homo sapiens, UniProt P29597)",
    "LABEL CLASS": "label 1"
  },
  {
    "COMPOUND": "CC(C)(C)OC(=O)N1CCC(CC(=O)Nc2ccc3cc2CCc2cncc(c2)Nc2ncc(Cl)c(n2)N3)CC1 [Example A70, bis(trifluoroacetate)]",
    "ASSAY TARGET": "TYK2 (Homo sapiens, UniProt P29597)",
    "LABEL CLASS": "label 0"
  },
  {
    "COMPOUND": "CSc1ccccc1NC(=O)N1CCC(C(=O)Nc2ccc3cc2CCc2cccc(c2)Nc2ncc(Cl)c(n2)N3)CC1 [Example A39, trifluoroacetate]",
    "ASSAY TARGET": "TYK2 (Homo sapiens, UniProt P29597)",
    "LABEL CLASS": "label 0"
  },
  {
    "COMPOUND": "N#Cc1ccccc1N1CCC(CC(=O)Nc2ccc3cc2CCc2cncc(c2)Nc2ncc(Cl)c(n2)N3)CC1 [Example A220, tris(trifluoroacetate)]",
    "ASSAY TARGET": "TYK2 (Homo sapiens, UniProt P29597)",
    "LABEL CLASS": "label 0"
  }
]

###

Listing of recorded ALK % of inhibition at a concentration of 500 nM or 1 mM by entry.
# ASSAY TARGET: Recombinant Human Anaplastic Lymphoma Kinase (Homo sapiens)
# Construct: purchased Invitrogen, Carlsbad, Calif
# Sequence (Q9UM73 19-1620): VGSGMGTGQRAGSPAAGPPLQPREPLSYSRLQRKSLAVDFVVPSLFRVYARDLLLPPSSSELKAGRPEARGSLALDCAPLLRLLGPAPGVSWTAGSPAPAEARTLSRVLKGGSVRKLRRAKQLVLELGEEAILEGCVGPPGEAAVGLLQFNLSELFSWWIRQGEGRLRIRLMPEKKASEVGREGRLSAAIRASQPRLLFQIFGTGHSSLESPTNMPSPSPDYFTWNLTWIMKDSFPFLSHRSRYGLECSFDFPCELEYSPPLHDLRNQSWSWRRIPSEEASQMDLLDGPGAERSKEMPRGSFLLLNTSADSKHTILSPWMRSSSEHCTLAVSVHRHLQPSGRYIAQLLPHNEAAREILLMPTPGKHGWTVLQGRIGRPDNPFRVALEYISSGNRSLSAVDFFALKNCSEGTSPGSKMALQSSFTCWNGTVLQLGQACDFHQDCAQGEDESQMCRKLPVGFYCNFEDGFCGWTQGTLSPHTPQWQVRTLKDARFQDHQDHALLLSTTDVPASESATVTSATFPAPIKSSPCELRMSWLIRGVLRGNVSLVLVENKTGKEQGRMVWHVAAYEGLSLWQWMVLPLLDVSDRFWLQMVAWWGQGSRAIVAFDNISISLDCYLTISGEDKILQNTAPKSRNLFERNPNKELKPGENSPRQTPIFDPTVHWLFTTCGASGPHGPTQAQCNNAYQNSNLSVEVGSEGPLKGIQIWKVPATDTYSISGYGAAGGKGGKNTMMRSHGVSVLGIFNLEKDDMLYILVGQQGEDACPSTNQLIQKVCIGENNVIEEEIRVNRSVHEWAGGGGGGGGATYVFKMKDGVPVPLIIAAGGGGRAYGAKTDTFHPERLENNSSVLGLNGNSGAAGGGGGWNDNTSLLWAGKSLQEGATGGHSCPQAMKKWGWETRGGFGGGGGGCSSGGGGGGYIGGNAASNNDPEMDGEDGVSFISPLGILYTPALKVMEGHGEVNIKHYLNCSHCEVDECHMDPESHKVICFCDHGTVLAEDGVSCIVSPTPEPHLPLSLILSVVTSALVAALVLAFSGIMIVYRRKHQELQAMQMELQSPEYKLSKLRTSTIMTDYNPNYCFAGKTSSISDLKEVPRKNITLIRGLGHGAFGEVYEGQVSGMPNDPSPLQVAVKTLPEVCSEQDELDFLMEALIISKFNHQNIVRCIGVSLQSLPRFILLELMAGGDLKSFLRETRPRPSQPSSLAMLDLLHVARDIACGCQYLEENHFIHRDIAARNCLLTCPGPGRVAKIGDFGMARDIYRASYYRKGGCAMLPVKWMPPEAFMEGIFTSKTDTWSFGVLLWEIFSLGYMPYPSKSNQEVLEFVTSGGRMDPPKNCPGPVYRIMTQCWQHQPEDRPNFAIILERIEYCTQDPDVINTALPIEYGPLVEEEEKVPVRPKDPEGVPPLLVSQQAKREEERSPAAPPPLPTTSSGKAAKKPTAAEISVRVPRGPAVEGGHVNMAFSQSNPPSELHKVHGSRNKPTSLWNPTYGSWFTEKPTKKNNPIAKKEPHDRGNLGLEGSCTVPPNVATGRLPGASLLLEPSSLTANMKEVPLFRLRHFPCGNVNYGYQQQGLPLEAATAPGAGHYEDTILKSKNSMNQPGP
# ASSAY TEXT: ALK HTRF kinase assay
# Type: biochemical
# CONDITION CONTEXT: compound at 500 nM or 1 mM; 90 μM ATP
METRIC: ALK % of inhibition at a concentration of 500 nM or 1 mM (%)

[
  {
    "COMPOUND": "CS(=O)(=O)N1CCC(CC(=O)Nc2ccc3cc2CCc2cncc(c2)Nc2ncc(Cl)c(n2)N3)CC1 [Example A79, bis(trifluoroacetate)]",
    "U": "%",
    "RECORDED RESULT": 33
  },
  {
    "COMPOUND": "O=C(CC1CCN(C(=O)c2ccncc2)CC1)Nc1ccc2cc1CCc1cccc(c1)Nc1ncc(Cl)c(n1)N2 [Example A185, bis(trifluoroacetate)]",
    "U": "%",
    "RECORDED RESULT": 33
  },
  {
    "COMPOUND": "O=C(CC1CCN(C(=O)c2ccon2)CC1)Nc1ccc2cc1CCc1cncc(c1)Nc1ncc(Cl)c(n1)N2 [Example A135, bis(trifluoroacetate)]",
    "U": "%",
    "RECORDED RESULT": 30
  }
]
